Reference source for all entries: ChEMBL document CHEMBL1131488

Target: Neuraminidase (Influenza B virus (strain B/Lee/1940), UniProt P03474)
Sequence (P03474 whole entry): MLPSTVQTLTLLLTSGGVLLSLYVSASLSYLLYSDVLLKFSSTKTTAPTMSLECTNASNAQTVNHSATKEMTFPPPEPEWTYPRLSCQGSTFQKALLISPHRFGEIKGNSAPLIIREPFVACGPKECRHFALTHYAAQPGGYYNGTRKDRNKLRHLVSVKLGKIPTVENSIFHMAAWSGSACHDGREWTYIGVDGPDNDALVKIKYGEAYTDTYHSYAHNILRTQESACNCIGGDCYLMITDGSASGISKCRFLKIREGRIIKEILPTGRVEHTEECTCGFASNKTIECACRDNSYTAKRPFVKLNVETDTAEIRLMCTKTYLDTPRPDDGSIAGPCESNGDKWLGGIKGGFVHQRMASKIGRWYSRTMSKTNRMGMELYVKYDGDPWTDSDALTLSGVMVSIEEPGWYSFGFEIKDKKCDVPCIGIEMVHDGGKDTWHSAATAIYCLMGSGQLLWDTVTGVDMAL
Test: Inhibition of influenza B virus sialidase activity
Exercise: state measured IC50 for each of the compounds provided.
One number for each entry, in µM.

Record excerpt, results attached:
>  <COMPOUND>
CC(=O)N[C@@H]1[C@@H](N)C=C(C(=O)O)O[C@H]1C(=O)N(CCO)CCc1ccccc1

>  <TARGET DESC>
Neuraminidase (Influenza B virus (strain B/Lee/1940), UniProt P03474)

>  <IC50, µM>
100

$$$$
>  <COMPOUND>
CC(=O)N[C@@H]1[C@@H](N)C=C(C(=O)O)O[C@H]1C(=O)N(CCN)CCc1ccccc1

>  <TARGET DESC>
Neuraminidase (Influenza B virus (strain B/Lee/1940), UniProt P03474)

>  <IC50, µM>
260

$$$$
>  <COMPOUND>
CCN(CC)C(=O)[C@@H]1OC(C(=O)O)=C[C@H](N)[C@H]1NC(C)=O

>  <TARGET DESC>
Neuraminidase (Influenza B virus (strain B/Lee/1940), UniProt P03474)

>  <IC50, µM>
0.36

$$$$
>  <COMPOUND>
CCCN(CCc1cccc(O)c1)C(=O)[C@@H]1OC(C(=O)O)=C[C@H](N)[C@H]1NC(C)=O

>  <TARGET DESC>
Neuraminidase (Influenza B virus (strain B/Lee/1940), UniProt P03474)

>  <IC50, µM>
2.3

$$$$
>  <COMPOUND>
CCCN(CCc1ccc(C(C)C)cc1)C(=O)[C@@H]1OC(C(=O)O)=C[C@H](N)[C@H]1NC(C)=O

>  <TARGET DESC>
Neuraminidase (Influenza B virus (strain B/Lee/1940), UniProt P03474)

>  <IC50, µM>
6.2

$$$$
>  <COMPOUND>
CCCN(CCc1cccc(OC)c1)C(=O)[C@@H]1OC(C(=O)O)=C[C@H](N)[C@H]1NC(C)=O

>  <TARGET DESC>
Neuraminidase (Influenza B virus (strain B/Lee/1940), UniProt P03474)

>  <IC50, µM>
3.2

$$$$
>  <COMPOUND>
CCCN(Cc1ccccc1)C(=O)[C@@H]1OC(C(=O)O)=C[C@H](N)[C@H]1NC(C)=O

>  <TARGET DESC>
Neuraminidase (Influenza B virus (strain B/Lee/1940), UniProt P03474)

>  <IC50, µM>
180

$$$$
>  <COMPOUND>
CC(=O)N[C@@H]1[C@@H](N)C=C(C(=O)O)O[C@H]1C(=O)N(CCc1ccccc1)CC(=O)O

>  <TARGET DESC>
Neuraminidase (Influenza B virus (strain B/Lee/1940), UniProt P03474)

>  <IC50, µM>
75

$$$$

Hi! Can you tell me IC50 for each of these compounds?
1. CCCN(CCCc1ccccc1)C(=O)[C@@H]1OC(C(=O)O)=C[C@H](N)[C@H]1NC(C)=O
2. CCC1CCC(CC)N1C(=O)[C@@H]1OC(C(=O)O)=C[C@H](N)[C@H]1NC(C)=O (some centres not stated)

Found:
1. 46
2. 26
